Molecular target: Sialate O-acetylesterase (Homo sapiens)
Test: human SIAE inhibitors, retest, confirmation, biochemical, fluorescence polarization, FP-Rh probe, triplicate (AID 1117263);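 note: 0% = SIAE with DMSO and probe and 100% = probe without SIAE; inhibitors lower polarization as more probe stays unbound to SIAE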
Conditions: SIAE FP-Rh activity-based probe, at 9.66 µM, stronger effect = higher value
The whole screen tested about 2,300 compounds, of which about 300 (13%) were called active. The list is a sample of the results.
inhibition values, listed per item
Write the answer as a number in %, unit excluded.

Completed entries (count: 2):
molecule=CCCCn1c(N)c(N(CC(C)C)C(=O)CSc2ccc([N+](=O)[O-])cc2)c(=O)[nH]c1=O measurement_type=inhibition reported_result=4.78
molecule=CCOC(=O)N1CCN(C(=O)CSc2ccc(Cl)cc2)CC1 measurement_type=inhibition reported_result=-2.01

QUERY: Give the measured inhibition of CC(C)/C=N/NC(=O)c1cc(Br)ccc1O .
RESULT: 4.2

QUERY: Would you kindly repeat that for CN(Cc1ccc(C(F)(F)F)cc1)C(=O)[C@H]1O[C@@H](n2cnc3c(N)ncnc32)[C@H](O)[C@@H]1O ?
RESULT: 68.3

QUERY: Would you kindly repeat that for Nc1ncnc2c1ncn2[C@@H]1O[C@H](C(=O)NCC(F)(F)F)[C@@H](O)[C@H]1O ?
RESULT: 44.1

QUERY: Would you kindly repeat that for CC(C)CCNC(=O)C1CCCN(S(=O)(=O)c2ccc(F)cc2)C1 (configuration not stated) ?
RESULT: 1.12

QUERY: Would you kindly repeat that for CC(NS(=O)(=O)c1ccc(Cl)cc1)C(=O)Nc1ccc2c(c1)OCCO2 (configuration not stated) ?
RESULT: -0.44
